# measurement_notes: OD615 S. cerevisiae growth inhibition, permissive medium, pilot counter-assay, permissive growth control for S. cerevisiae lifespan shortening project (AID 705)
# condition: OD615, 24 h, at 10 µM, stronger effect = higher value
For each record, write down the corresponding growth inhibition.
Numbers only, in %.

Use these answered entries as a reference point.
1) CNc1nc(SCC(=O)OC)nc(N2CCOCC2)n1 ... -11.7
2) Cc1ccc(C(=O)c2ccccc2C(=O)O)c(O)c1 ... -15.6
3) COc1ccc(-c2nnc3ccc(SCC(=O)N4CCCCC4)nn23)cc1OC ... 3.98

State the recorded growth inhibition for every item in the following list.
1. O=C(Nc1nnc(-c2ccc3c(c2)CCCC3)o1)C1CCCCC1
2. CCCC(=O)Nc1nc2ccc(OC)cc2s1

-16.5
-15.5

Recall and state the measured growth inhibition for Cc1ccc(NC(=O)NCCN2C(=O)C3C4C=CC(C4)C3C2=O)cc1 (stereo unspecified) .
-8.32

###

# measurement_notes: growth suppression of PTEN-deleted HCT116, pilot screen, cell-based, HCT116 clonal line, CellTiter-Glo (AID 824);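 further: 0% = 20 µM Hyamine control and 100% = vehicle cell control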
# condition: 60 h, at 10 µM, stronger effect = lower value
Records with an inconclusive call do not appear.
I'd appreciate it if you marked entries 1 (yes) when viability is lower than 90% and 0 (no) when it is not.

As a guide, the following entries are already answered.
1) O=C(c1ccccc1)c1cccc(NC(=O)c2ccco2)c1 ... 0 (no)
2) COc1cccc(C2C(C(=O)OCc3ccccc3)=C(C)Nc3ncnn32)c1OC (stereo unspecified) ... 1 (yes)
3) O=C(Cn1cc(C(=O)c2cccs2)c2ccccc21)NCc1ccc2c(c1)OCO2 ... 1 (yes)
4) O=C(NCCn1ccc2ccccc21)c1ccc(S(=O)(=O)N2CCCCC2)cc1 ... 1 (yes)

Does COc1ccc(C2NC(=O)NC(O)(C(F)(F)F)C2C(=O)c2ccc(C)cc2)cc1 (stereo unspecified) have viability strictly under 90%?
0 (no)

###

# measurement_notes: OD615 S. cerevisiae growth inhibition, permissive medium, pilot counter-assay, permissive growth control for S. cerevisiae lifespan shortening project (AID 705)
# condition: OD615, 24 h, at 10 µM, stronger effect = higher value
Please go through the items and note down their growth inhibition.
One number for each entry, in %.

For each of the items listed, what is its growth inhibition?
1. CNC(=O)c1nnc(Cc2ccc(F)cc2)o1
2. Cc1ccccc1NC(=O)NCCN1C(=O)C2C3C=CC(C3)C2C1=O (stereo unspecified)
3. CCCn1c(C2CC(=O)N(c3cc(OC)ccc3OC)C2)nc2ccccc21 (stereo unspecified)
4. COc1ccccc1CNC(=O)CCn1c(=O)oc2ccccc21
5. CC1=C(C)C(=O)N(CCC(=O)O)C1=O
6. CCNc1nc(C)c2cc(Br)c(=O)n(CC)c2n1

2.65
-7.87
-6.39
5.65
-12.6
-2.64

###

# measurement_notes: Restrictive medium S. cerevisiae growth inhibition, OD615, pilot screen of yeast lifespan reduction project, restrictive growth control (AID 706);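 further: modified DeaD lifespan yeast strain shifted to restrictive glucose medium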
# condition: OD615, 48 h, at 10 µM, stronger effect = higher value
property: growth inhibition (%)
Give bare numbers, in %.

Solved entries (count: 10):
1. COc1ccc(NC(=O)C2CCCN(S(=O)(=O)c3cccnc3)C2)c(OC)c1 (centres undefined) ... -2.6
2. CCOC(=O)C1=C(Nc2cccc(Cl)c2)OCC1=O ... 3.65
3. COc1ccc(C2(O)CCN(C(=O)Cc3cccnc3)CC2)cc1 ... -12
4. CC(=O)Oc1ccc(C(=O)Nc2nccs2)cc1 ... -14.7
5. O=C(NCCc1ccc(Cl)cc1)c1cnc2n(c1=O)CCS2 ... -8.11
6. CC(=O)c1ccc(NC(=O)CSc2nc3nc(C)cc(C)n3n2)cc1 ... -8.37
7. CCOC(=O)C1=C(C)NC(=O)NC1c1ccc(N(C)C)cc1 (centres undefined) ... -5.65
8. COc1ccc(-c2nc(C#N)c(NC(C)C)o2)cc1 ... -2.25
9. COc1ccc(S(=O)(=O)N2CCCC2C(=O)Nc2ccc(C(C)=O)cc2)cc1 (centres undefined) ... -11
10. CCCCn1c(CNC(=O)CC)nc2ccccc21 ... -9.44

Please report growth inhibition for every entry that follows.
1. COc1ccc(-c2nnnn2C)cc1S(=O)(=O)NCCc1ccccc1
2. COc1ccc(N(CC(=O)Nc2ccc3c(c2)OCO3)S(C)(=O)=O)c(OC)c1
3. C=CCn1c(N(C)C)nc2c1c(=O)[nH]c(=O)n2C
4. O=C(CSc1ncnc2c1oc1ccccc12)NC1CCCCC1
5. COc1cccc(C(=O)Nc2ccc3nc(N4CCN(c5ncccn5)CC4)cc(C)c3c2)c1OC

1. 2.52
2. -4.5
3. -12.5
4. 3.17
5. -8.24

Each of the following entries comes with a recorded value; kindly state growth inhibition for each.
1. O=C(CN1CCN(CC(=O)Nc2ccccn2)CC1)Nc1ccccn1
2. CC(=O)Oc1cc2c(C(=O)NCc3ccncc3)c(C)oc2c2ccccc12
3. CS(=O)(=O)n1nc(C(=O)N2CCOCC2)nc1N
4. CCC1CCCCN1C(=O)c1cc2cc(Br)ccc2oc1=O (centres undefined)

-0.335
-16.8
-18.6
-15.9

Record growth inhibition for all entries; do not skip any.
1. Cc1noc(C)c1S(=O)(=O)N(CC(=O)Nc1ccc2c(c1)OCO2)c1ccc(C(C)C)cc1
2. N#CCc1ccc(NS(=O)(=O)c2ccc(N3CCCC3=O)cc2)cc1
3. Cc1cc(=O)oc2c(N)c(O)ccc12
4. Cc1sc(NC(=O)c2cccs2)c(C(N)=O)c1C

[-3.17, -7.71, -11.6, 22.8]

Could you please provide reported growth inhibition for CCOC(=O)Cn1c(=O)oc2cc(S(=O)(=O)N3CCCC(C(=O)OCC)C3)ccc21 (centres undefined) ? Thanks!
-20.5

###

# measurement_notes: OD615 S. cerevisiae growth inhibition, permissive medium, pilot counter-assay, permissive growth control for S. cerevisiae lifespan shortening project (AID 705)
# condition: OD615, 24 h, at 10 µM, stronger effect = higher value
property: growth inhibition (%)
Answers are plain numbers, in %.

Here are 10 compounds together with their reported answers.
1) Cc1sc2nc(SCC(=O)NCc3ccco3)n(C)c(=O)c2c1C ... -4.25
2) Clc1cccc(CSc2nnc(-c3ccccn3)n2Cc2ccco2)c1 ... -8.18
3) COc1ccc(Cl)cc1NC(=O)c1nc2nc(C)cc(C(F)F)n2n1 ... -3.76
4) Cc1c(NC(=O)c2ccc(F)cc2)c(=O)n(-c2ccccc2)n1C ... -15.9
5) CCOc1cc(CN2CCSCC2)ccc1O ... -8.12
6) Cc1nnc(NC(=O)CSc2nnc(Cc3cccn3C)n2-c2ccccc2)s1 ... 10.8
7) CC(C)c1cc(N2CCN(C(=O)c3ccco3)CC2)n2c(nc3ccccc32)c1C#N ... -3.91
8) O=C(CN1CCOc2ccccc21)NCc1ccc(F)cc1 ... -29.5
9) O=C(Nc1nc(-c2cc3ccccc3oc2=O)cs1)c1ccco1 ... -17.5
10) O=C(c1ccc(CS(=O)(=O)c2ccc(Br)cc2)o1)N1CCCCCC1 ... -9.29

Hi, could you look up growth inhibition for each item in my list?
1. Cc1ccc2oc(=O)c3cc(C(=O)NCCN4CCN(C)CC4)sc3c2c1
2. CCOC(=O)c1ccc(NC2c3ccccc3C(=O)N2c2cccnc2)cc1 (stereo not drawn)
3. COc1ccc(C(=O)Nc2nncs2)cc1S(=O)(=O)N1CC(c2ccccc2)CC1=O (stereo not drawn)

1: -0.32; 2: 0.43; 3: -12.7

###

# measurement_notes: growth suppression of PTEN-deleted HCT116, pilot screen, cell-based, HCT116 clonal line, CellTiter-Glo (AID 824);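 further: 0% = 20 µM Hyamine control and 100% = vehicle cell control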
# condition: 60 h, at 10 µM, stronger effect = lower value
Records with an inconclusive call do not appear.
Assign viability to each entry below.
Answers are plain numbers, in %.

1) O=C(O)C1CC=CCC1C(=O)Nc1cccc(Cl)c1Cl (configuration not stated) ... 101

The following compounds each have a reported value; give each one's viability.
1. O=C(Cc1cccs1)N1CCN(c2ccccn2)CC1
2. CCC(C)Sc1nnc(Cc2cc(=O)[nH]c(=O)[nH]2)n1-c1ccc(F)cc1 (configuration not stated)
3. CC(NC(=O)c1ccco1)C(c1cccs1)N1CCN(c2ccccc2)CC1 (configuration not stated)
4. Brc1ccccc1OCCCN1CCOCC1
5. O=C1CCCN1CC(CN1CCOCC1)Sc1nnnn1-c1ccccc1 (configuration not stated)
6. Cc1ccc(OCCn2c(C)c(/C=N/n3cnnc3)c3ccccc32)cc1
7. CCC(CC)C(=O)NCc1ccccc1OC

98
100
81.2
98.2
105
76
101

###

Assignment: determine reported viability for the given compounds.
# measurement_notes: growth suppression of PTEN-deleted HCT116, pilot screen, cell-based, HCT116 clonal line, CellTiter-Glo (AID 824);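 further: 0% = 20 µM Hyamine control and 100% = vehicle cell control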
# condition: 60 h, at 10 µM, stronger effect = lower value
Records with an inconclusive call do not appear. Activity calls are given as the source filed them.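 Rule for the calls: active = viability at or below 27.92% in each of two runs, the all-compound median minus 4 SD; inconclusive = no clear call, values can overlap the other calls; inactive = the rest.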

Look over these answered cases.
1) O=C(Nn1nnnc1Nc1ccccc1)C12CC3CC(CC(C3)C1)C2 ... 86.5% (inactive)
2) O=C(NCc1ccccn1)C1CCN(S(=O)(=O)N2CCCC2)CC1 ... 95.7% (inactive)
3) CCN1c2ccccc2NC2N=C(OC)C(c3ccccc3)C21 (stereo unspecified) ... 2.97% (active)
4) CC(=O)Nc1ccc(C2Nc3ccccc3C(=O)N2C2CCCCC2)cc1 (stereo unspecified) ... 93.6% (inactive)
5) COC(=O)C1Sc2[nH]c(=O)sc2C(c2ccc(Cl)cc2)C1C(=O)OC (stereo unspecified) ... 88.7% (inactive)
6) COc1cc(OC)cc(-c2nc(-c3ccc(Br)cc3)no2)c1 ... 89.2% (inactive)
7) COc1cccc(C2(O)CCN(C(=O)c3cccs3)CC2)c1 ... 97% (inactive)
8) OCCn1c(SCCOc2ccccc2F)nc2ccccc21 ... 88.4% (inactive)
9) CC1CCCCC1NS(=O)(=O)c1ccc(S(=O)(=O)N2CCN(CCC#N)CC2)cc1 (stereo unspecified) ... 87.8% (inactive)
10) O=c1c2cc(-c3ccccc3)sc2ncn1/N=C/c1ccco1 ... 82% (inactive)

Below are some compounds; for each one, tell me its viability.
1. CSC1=NCCN1C(=O)COc1ccc2ccccc2c1
2. CCOC(=O)N1CCC(NC(=O)c2csc3c2CCCC3)CC1
3. COc1ccc(-c2cc(C(F)F)n3ncc(C(=O)NCCCN4CCCC4=O)c3n2)cc1

["101% (inactive)", "93.6% (inactive)", "73.5% (inactive)"]

Data provenance: PubChem BioAssay
